Origin of values: paper PMC10222270

target: SARS CoV-2 M^pro (Severe acute respiratory syndrome coronavirus 2); construct: The main protease (M^pro) is a part of the polyprotein chain, also named 3C-like protease; SUMO (cleaved yes); His; made in house; host or cells: Escherichia coli BL21(DE3); assay: nanoDSF thermal shift assay (TSA); format: binding; settings: compound 50 μM, versus M^pro+DMSO
Counter-ions that a name gives are not always drawn.
Each entry gets Criterion not met if its △T stays under 0 °C, and Criterion met if its △T is 0 °C or above.

Examples with answers:
[[record]]
molecule = "CC(C)=CC[C@H](OC(=O)C=C(C)C)C1=CC(=O)c2c(O)ccc(O)c2C1=O"
subject_of_test = "SARS CoV-2 M^pro (Severe acute respiratory syndrome coronavirus 2)"
cat = "Criterion met"

[[record]]
molecule = "O=c1cc(-c2ccccc2)oc2cc(O)c(O)c(O)c12 [baicalein, Baicalein, reference compound]"
subject_of_test = "SARS CoV-2 M^pro (Severe acute respiratory syndrome coronavirus 2)"
cat = "Criterion met"

[[record]]
molecule = "COc1cc(O)c2c(c1)oc(=O)c1c3cc(O)c(O)cc3oc21"
subject_of_test = "SARS CoV-2 M^pro (Severe acute respiratory syndrome coronavirus 2)"
cat = "Criterion met"


Kindly review the next molecule as well.
[ask] Does the molecule CC(C)CCCC(C)C1CCC2C3CC=C4CC(OS(=O)(=O)O)CCC4(C)C3CCC12C (centres unmarked) [cholesteryl sodium sulfate, Cholesteryl sodium sulfate] have recorded △T that is 0 °C or more?
[reply] Criterion not met

====

biological target: SARS CoV-2 M^pro (Severe acute respiratory syndrome coronavirus 2, UniProt P0DTD1); construct: The main protease (M^pro) is a part of the polyprotein chain, also named 3C-like protease; SUMO (cleaved yes); His; made in house; host or cells: Escherichia coli BL21(DE3); experiment: biochemical; assay type: biochemical; settings: 0.02%(v/v) Triton X−100 in buffer
Readout Name: IC50 (µM)
API: value field is a number in µM; no unit string.

# count of solved cases: 3
[[record]]
compound = "CC(C)=CC[C@H](OC(=O)C=C(C)C)C1=CC(=O)c2c(O)ccc(O)c2C1=O"
display_unit = "µM"
recorded_measurement = 2.89

[[record]]
compound = "CC(=O)OCCc1ccc(O)c(O)c1 [hydroxytyrosol acetate, Hydroxytyrosol Acetate]"
display_unit = "µM"
recorded_measurement = 3.78

[[record]]
compound = "COc1cc(O)c2c(c1)oc(=O)c1c3cc(O)c(O)cc3oc21"
display_unit = "µM"
recorded_measurement = 2.51


[ask] State the recorded IC50 for this entry: COc1cc2ccc(=O)oc2c(O)c1O
[reply] 1.3

[ask] Please give the result for COc1cc(C(=S)N2CCOCC2)ccc1O [vanitiolide, Vanitiolide] too.
[reply] 1.42

====

Reported values of Tm of M^pro for individual entries
target: SARS CoV-2 M^pro (Severe acute respiratory syndrome coronavirus 2, UniProt P0DTD1); construct: The main protease (M^pro) is a part of the polyprotein chain, also named 3C-like protease; SUMO (cleaved yes); His; made in house; host or cells: Escherichia coli BL21(DE3); test: nanoDSF thermal shift assay (TSA); type: binding; conditions: compound 3.125 μM
Where a name gives a salt, the structure may show the parent alone.
Respond numerically; units are °C and should not be typed.

[ask] Please provide the recorded Tm of M^pro for CC(C)CCCC(C)C1CCC2C3CC=C4CC(OS(=O)(=O)O)CCC4(C)C3CCC12C (stereo not shown) [cholesteryl sodium sulfate, Cholesteryl sodium sulfate] , tested on SARS CoV-2 M^pro (Severe acute respiratory syndrome coronavirus 2, UniProt P0DTD1).
[reply] 55.0

[ask] Try this compound next: Cc1c(=O)c(=O)c2c3c[nH]c4c(C)c(=O)c(=O)c(c5c[nH]c1c52)c43 [melanin, Melanin]
[reply] 55.0

[ask] Try the compound O=c1cc(-c2ccccc2)oc2cc(O)c(O)c(O)c12 [baicalein, Baicalein, reference compound]
[reply] 55.2

[ask] Same question for COc1cc(O)c2c(c1)oc(=O)c1c3cc(O)c(O)cc3oc21 [wedelolactone, Wedelolactone] please.
[reply] 55.2
